Kindly supply the reported z-score values for the records listed here.
assay: cell viability in Huh7 cells, primary screen, cytotoxicity control for HCV replication inhibitor project, CellTiter-Glo luminescence, basal, 48 h (AID 1143); settings: Huh7 HCV replicon, higher = more signal, called active from +8 up or from −8 down;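 further: Huh7 hepatoma cells carrying a hepatitis C replication reporter with no stimulus; test concentration not given here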
Reply with just the number.

QUERY: Tell me its z-score given C=CCC(OC(C)=O)[C@@H]1[C@@H](N(Cc2ccc(-c3cccc(C(F)(F)F)c3)o2)C(=O)Cc2ccc(OC)cc2)c2cc(OCCCO)ccc2N1C(=O)Cc1ccc2ccccc2c1 (stereo not given in full) as the entry.
RESULT: -1.58

QUERY: Tell me its z-score given CCCCC(=C=CC[C@H](O)c1ccc(OCCO)cc1)C[C@H](O)COCc1ccccc1 as the entry.
RESULT: -0.92

QUERY: Tell me its z-score given CC1(C)C(=O)C(c2ccccc2)=C2CN3C(=O)N(CCc4ccccc4)C(=O)C3(Cc3ccc(C(F)(F)F)cc3)C=C21 (stereo not given) as the entry.
RESULT: -1.29

QUERY: Tell me its z-score given C=CCNC(=O)[C@H]1[C@@H]2C(=O)O[C@@H](c3ccccc3)[C@@H](c3ccccc3)N2[C@@H](c2ccc(O)cc2)[C@]12C(=O)N(C(=O)OCCOC)c1ccc(C#CCC(C(=O)OC)C(=O)OC)cc12 as the entry.
RESULT: -2.96

QUERY: Tell me its z-score given C=CCN1C(=O)[C@]2(O[C@H](CCO)[C@@H]([Si](C)(C)c3ccc(OC)cc3)[C@@H]2C)c2cc(N3C(=O)COc4ccccc43)ccc21 as the entry.
RESULT: -8.07

QUERY: Tell me its z-score given O=C(CS)NCCCCCCNC(=O)[C@@H]1C[C@@H]2C(=O)NCC(=O)N2[C@@H]1c1ccc(O)cc1 as the entry.
RESULT: -0.534

QUERY: Tell me its z-score given [N-]=[N+]=Nc1ccccc1C[C@]1(C(=O)O)N=C(c2ccc(OCCCO)cc2)O[C@H]1c1ccccc1N=[N+]=[N-] as the entry.
RESULT: -1.26

QUERY: Tell me its z-score given COC(=O)[C@@]1(Cc2ccccc2)[C@H]2c3cc(C(=O)N4CCCC4)n(CCSCCO)c3C[C@H]2CN1C(=O)c1ccccc1 as the entry.
RESULT: -1.17

QUERY: Tell me its z-score given CC(C)C(=C=CC[C@@H](O)c1cccc(OCCO)c1)C[C@@H](O)c1ccccn1 as the entry.
RESULT: -0.846

QUERY: Tell me its z-score given C=CCN1C(=O)[C@@]2(O[C@@H](CCO)[C@H]([Si](C)(C)c3ccc(OC)cc3)[C@H]2C)c2cc(N3CCOC3=O)ccc21 as the entry.
RESULT: -7.42

QUERY: Tell me its z-score given C=C(C)[C@@H]1CC=C(C(O)C2C=CC3C(=O)N(c4ccccc4)C(=O)C3N2Nc2ccc(C#N)cc2)CC1 (stereo not given in full) as the entry.
RESULT: -0.133

QUERY: Tell me its z-score given COc1ccc([Si](C)(C)[C@H]2[C@H](CCO)O[C@@]3(C(=O)N(Cc4ccccc4)c4ccc(N5CCOC5=O)cc43)[C@@H]2C)cc1 as the entry.
RESULT: -4.87

QUERY: Tell me its z-score given CC(C)N1CC=CC23O[C@@H]4/C=C\CCCOC(=O)C4[C@H]2C(=O)N(CCCCCCO)[C@@H]3C1=O (stereo not given in full) as the entry.
RESULT: 0.0722

QUERY: Tell me its z-score given C=C(COC)C(=O)CC[C@@H](OC(=O)c1cccnc1)c1ccccc1OCCO as the entry.
RESULT: -3.79

QUERY: Tell me its z-score given O=C(NCC(O)CO)[C@@]1(CCS(=O)(=O)c2ccccc2)COC(c2ccc(OCCCO)cc2)=N1 (stereo not given in full) as the entry.
RESULT: -1.2
